- EXPERIMENTAL PROTOCOL: Selectivity ratio of Ki for JAK2 kinase domain to Ki for JAK1 kinase domain
PROPERTY MEASURED: Ratio Ki

Example entries begin here.
[
  {
    "MOLECULE": "CC(=O)NCc1nc2cnc3[nH]ccc3c2n1C1CCN(CCC#N)CC1",
    "REPORTED VALUE": 5.4
  },
  {
    "MOLECULE": "N#CCCN1CCC(n2c(CCC3CCCO3)nc3cnc4[nH]ccc4c32)CC1 (racemic)",
    "REPORTED VALUE": 5.4
  },
  {
    "MOLECULE": "CS(=O)(=O)NCCc1nc2cnc3[nH]ccc3c2n1C1CC2CCC1C2 (racemic)",
    "REPORTED VALUE": 10
  },
  {
    "MOLECULE": "N#CCCN1CCC(n2c(CC3CCOCC3)nc3cnc4[nH]ccc4c32)CC1",
    "REPORTED VALUE": 4.8
  },
  {
    "MOLECULE": "CCOC(=O)NCc1nc2cnc3[nH]ccc3c2n1C1CCN(CCC#N)CC1",
    "REPORTED VALUE": 3.6
  },
  {
    "MOLECULE": "N#CCCN1CCC(n2c(CC3CCCO3)nc3cnc4[nH]ccc4c32)CC1 (racemic)",
    "REPORTED VALUE": 1.5
  },
  {
    "MOLECULE": "N#CCCN1CCC(n2c(C3CC3)nc3cnc4[nH]ccc4c32)CC1",
    "REPORTED VALUE": 1.8
  },
  {
    "MOLECULE": "CC(=O)NCc1nc2cnc3[nH]ccc3c2n1C1CCN(CC(F)(F)F)CC1",
    "REPORTED VALUE": 6.7
  },
  {
    "MOLECULE": "CCCc1nc2cnc3[nH]ccc3c2n1C1CCN(CCC#N)CC1",
    "REPORTED VALUE": 2.1
  },
  {
    "MOLECULE": "CS(=O)(=O)NCCc1nc2cnc3[nH]ccc3c2n1C1CCN(CCC#N)CC1",
    "REPORTED VALUE": 7
  }
]

I = CC(C)CS(=O)(=O)NCc1nc2cnc3[nH]ccc3c2n1C1CCN(CCC#N)CC1
II = Cn1ccc(CCc2nc3cnc4[nH]ccc4c3n2C2CCN(CCC#N)CC2)n1
# input Form: Entry with minimum Ratio Ki (choose one): I / II # answer = label of selected item
# output II
(II: 7.6, I: 11)

A = N#CCCN1CCC(n2c(CC3CCCC3)nc3cnc4[nH]ccc4c32)CC1
B = CS(=O)(=O)NCc1nc2cnc3[nH]ccc3c2n1C1CC2CCC1O2 (racemic)
C = N#CCCN1CCC(n2c(CCn3cccn3)nc3cnc4[nH]ccc4c32)CC1
# input Please put the entries in order of rising Ratio Ki. Put the labels in the requested order and list them out.
# output C, A, B

1 = CC(=O)NCc1nc2cnc3[nH]ccc3c2n1C1CC2CCC1C2 (racemic)
2 = CC(=O)NCCc1nc2cnc3[nH]ccc3c2n1C1CCN(CCC#N)CC1
3 = N#CCCN1CCC(n2c(C3CCC3)nc3cnc4[nH]ccc4c32)CC1
# input Order field: Ratio Ki | Direction: descending (largest first) Returns: the labels arranged in the requested order.
# output 1, 2, 3
